# Test system: Escherichia coli TOP10
# protocol_details: shrunken log2 fold change of peptide-encoding DNA abundance (4.5 h post-induction vs induction); higher = less antimicrobial activity (less host growth inhibition)
# recorded_conditions: time post-induction: 4.5 h; library: site-saturation at positions 5, 18, 19, 20
Short version: shrunken log2 fold change at least -0.04 is 1 (yes), less is 0 (no).

seq: RRIRSRPPRLPRPRPRPLGIPRP
discrete_label: 1 (yes)
//
seq: RRIRYRPPRLPRPRPRPREEPRP
discrete_label: 1 (yes)
//
seq: RRIRHRPPRLPRPRPRPWFLPRP
discrete_label: 0 (no)
//
seq: RRIRNRPPRLPRPRPRPAVKPRP
discrete_label: 0 (no)
//
seq: RRIRCRPPRLPRPRPRPVCCPRP
discrete_label: 1 (yes)

Is shrunken log2 fold change for RRIRVRPPRLPRPRPRPADKPRP at or above -0.04?
0 (no)

Now the same for RRIRTRPPRLPRPRPRPWDPPRP
1 (yes)

Note, next up: RRIRRRPPRLPRPRPRPGRLPRP
1 (yes)

###

So I've got a bunch of sequences here, and I need their shrunken log2 fold change values.
# Test system: Escherichia coli TOP10
# protocol_details: shrunken log2 fold change of peptide-encoding DNA abundance (4.5 h post-induction vs induction); higher = less antimicrobial activity (less host growth inhibition)
# recorded_conditions: time post-induction: 4.5 h; library: site-saturation at positions 5, 18, 19, 20
One number for each entry.

// worked examples, shrunken log2 fold change included
seq: RRIRWRPPRLPRPRPRPTMSPRP
target_entity: Escherichia coli TOP10
observed_measurement: -0.065
--
seq: RRIRMRPPRLPRPRPRPPRFPRP
target_entity: Escherichia coli TOP10
observed_measurement: 1.23
--
seq: RRIRYRPPRLPRPRPRPTEPPRP
target_entity: Escherichia coli TOP10
observed_measurement: -0.131

For every listed record, write down its shrunken log2 fold change.
1. RRIRQRPPRLPRPRPRPYDQPRP
2. RRIRKRPPRLPRPRPRPTDLPRP
3. RRIRGRPPRLPRPRPRPESYPRP
4. RRIRYRPPRLPRPRPRPKSMPRP
5. RRIRGRPPRLPRPRPRPREYPRP
6. RRIRARPPRLPRPRPRPCNPPRP

[0.0352, 0.0464, 0.0402, -0.584, 0.355, -0.0307]

Okay, here is my list. What is shrunken log2 fold change for each of these?
1. RRIRQRPPRLPRPRPRPQTYPRP
2. RRIRDRPPRLPRPRPRPTDAPRP

-0.958
-0.036

Please state, for each entry, its recorded shrunken log2 fold change.
1. RRIRKRPPRLPRPRPRPKDEPRP
2. RRIRDRPPRLPRPRPRPNPDPRP

1: 0.0833; 2: -0.0924

Working through the 2 sequences below one at a time, give shrunken log2 fold change for each.
1. RRIRCRPPRLPRPRPRPQNDPRP
2. RRIRDRPPRLPRPRPRPPYCPRP

-0.505
-0.0939

###

# Test system: Escherichia coli TOP10;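 note: peptides expressed intracellularly from a pBAD plasmid library in pooled LB shake-flask culture, induced with 0.3% L-arabinose, DNA abundance read by NGS, three biological replicates, DESeq2 with apeglm shrinkage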
# protocol_details: shrunken log2 fold change of peptide-encoding DNA abundance (4.5 h post-induction vs induction); higher = less antimicrobial activity (less host growth inhibition)
# recorded_conditions: time post-induction: 4.5 h; library: site-saturation at positions 5, 18, 19, 20
Use -0.01 as the dividing line for shrunken log2 fold change, with the line itself on the Criterion met side and lower values as Criterion not met.

seq: RRIRNRPPRLPRPRPRPIDEPRP
discrete_label: Criterion not met
//
seq: RRIRFRPPRLPRPRPRPAPLPRP
discrete_label: Criterion met
//
seq: RRIRNRPPRLPRPRPRPYKRPRP
discrete_label: Criterion not met
//
seq: RRIRRRPPRLPRPRPRPSIGPRP
discrete_label: Criterion not met
//
seq: RRIRTRPPRLPRPRPRPMLGPRP
discrete_label: Criterion not met
//
seq: RRIRARPPRLPRPRPRPASCPRP
discrete_label: Criterion met
//
seq: RRIRMRPPRLPRPRPRPTTNPRP
discrete_label: Criterion met
//
seq: RRIRYRPPRLPRPRPRPLLWPRP
discrete_label: Criterion not met
//
seq: RRIRWRPPRLPRPRPRPRGHPRP
discrete_label: Criterion met
//
seq: RRIRRRPPRLPRPRPRPPPCPRP
discrete_label: Criterion met

Could you please find out whether RRIRGRPPRLPRPRPRPHLMPRP has shrunken log2 fold change that meets -0.01 or exceeds it?
Criterion not met

Okay, and RRIRTRPPRLPRPRPRPVASPRP ?
Criterion met

Would you mind doing RRIRHRPPRLPRPRPRPIAMPRP as well?
Criterion not met
